- assayed_target: T1, extracellular domain of activin receptor type IIB (ActRIIBecd), biotinylated (Homo sapiens (Human), UniProt Q13705 27-117, amino-biotinylated with amine-PEG3-Biotin)
- T1 construct: immobilised on a streptavidin-coated sensor chip; also called biotinylated ActRIIBecd; extracellular domain of ActRIIB
- T1 sequence: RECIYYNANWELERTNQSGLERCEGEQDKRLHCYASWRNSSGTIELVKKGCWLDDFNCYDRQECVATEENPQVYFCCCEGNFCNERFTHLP
- test: Mean KD column of Table 5; method not restated (BIAcore as Example 5); species also listed in Table 4
parameter: Kd (nM)
Provide only the numeric value, understood in nM.

Worked set:
SEQ ID NO: 284, cysteine pairs C59-C59^b, C8-C41^a, C9-C43^a, C88-C92^a (designed binder, disulfides C59-C59 (inter), C8-C41 (intra), C9-C43 (intra), C88-C92 (intra), homodimer by intermolecular disulfide) NSKIPKACCVPTELSAISMLYLDENEKVVLKNYQDMVVEGCGCRAQAKHKQRKRLKSSCKRHPLYVDFSDVGWNDWIVAPPGYHAFYCHGECPFPLADHLNSTNHAIVQTLVNSV = 4.89
SEQ ID NO: 292, cysteine pairs C80-C114^a, C79-C112^a, C44-C48^a (designed binder, disulfides C80-C114 (intra), C79-C112 (intra), C44-C48 (intra)) GQAKRKGYKRLKSSCKRHPLYVDFKDVGWNDHAVAPPGYHAFYCHGECPFPLADHLNSDNHAIVQTKVNSVNSKDPKACCVPTELSAPSPLYLDENEKPVLKNYQDMVVHGCGCR = 6.19
SEQ ID NO: 284, cysteine pairs C8-C9^a (designed binder, disulfides C8-C9 (intra)) NSKIPKACCVPTELSAISMLYLDENEKVVLKNYQDMVVEGCGCRAQAKHKQRKRLKSSCKRHPLYVDFSDVGWNDWIVAPPGYHAFYCHGECPFPLADHLNSTNHAIVQTLVNSV = 31.8

Please find the next binder below.
State the recorded Kd for this entry: SEQ ID NO: 268, cysteine pairs C23-C27^a, C65-C65^b, C79-C112^b, C80-C114^b (designed binder, disulfides C23-C27 (intra), C65-C65 (inter), C79-C112 (inter), C80-C114 (inter), homodimer by intermolecular disulfide) VDFSDVGWNDWIVAPPGYHAFYCHGECPFPLADHLNSTNHAIVQTLVNSVAQAKHKQRKRLKSSCKRHPLYNSKIPKACCVPTELSAISMLYLDENEKVVLKNYQDMVVEGCGCR
7.96
